Biological target: T1, oligopeptide SGHLDM (SEQ ID NO: 99)
T1 construct: Synthetic peptide, part of Loop C of AQP3
T1 peptide: SGHLDM
Experiment: ELISA on coated peptide
Procedure: To determine the important amino acid residues of an epitope in Loop C involved in binding to specific AQP3 antibody clones, peptides of varying lengths were produced. The sequences of these peptides are shown in column 2 of Table 4. The various peptides and AQP3 antibody clones were subjected to ELISA binding analyses. […] The microtiter wells (Costar 2690) were coated with 50 μL of each peptide at 4° C. overnight. […]
assay_readout: binding signal (plate reader)

[[record]]
binder = "BC-B10 (IgG) (antibody, V domains shown, also called anti AQP3 antibody BC-B10) VH: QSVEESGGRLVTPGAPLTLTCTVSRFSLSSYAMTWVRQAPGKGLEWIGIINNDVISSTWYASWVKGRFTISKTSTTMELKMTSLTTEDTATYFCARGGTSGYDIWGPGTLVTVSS VL: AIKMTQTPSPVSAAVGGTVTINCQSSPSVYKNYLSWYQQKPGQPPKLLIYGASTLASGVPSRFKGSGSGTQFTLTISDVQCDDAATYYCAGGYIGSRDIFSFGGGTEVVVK"
assay_readout = "binding signal (plate reader)"
result = 0.405

[[record]]
binder = "SC-F8 (IgG) (antibody, V domains shown, also called anti AQP3 antibody SC-F8) VH: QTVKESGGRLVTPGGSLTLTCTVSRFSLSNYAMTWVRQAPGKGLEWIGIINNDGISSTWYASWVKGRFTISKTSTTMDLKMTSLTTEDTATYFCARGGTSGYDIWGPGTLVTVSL VL: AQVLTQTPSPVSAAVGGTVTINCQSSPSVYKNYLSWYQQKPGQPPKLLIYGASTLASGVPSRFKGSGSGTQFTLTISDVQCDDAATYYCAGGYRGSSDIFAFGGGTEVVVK"
assay_readout = "binding signal (plate reader)"
result = 0.071

[[record]]
binder = "Antibody J (antibody, mouse IgG2a, kappa, V domains shown, also called anti AQP3 antibody J) VH: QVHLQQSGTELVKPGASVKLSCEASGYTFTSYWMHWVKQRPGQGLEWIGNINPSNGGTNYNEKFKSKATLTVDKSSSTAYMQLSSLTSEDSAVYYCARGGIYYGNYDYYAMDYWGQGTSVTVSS VL: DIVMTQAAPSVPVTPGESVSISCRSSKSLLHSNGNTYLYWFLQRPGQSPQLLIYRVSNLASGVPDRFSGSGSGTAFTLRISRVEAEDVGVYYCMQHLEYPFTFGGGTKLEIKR"
assay_readout = "binding signal (plate reader)"
result = 0.041

[[record]]
binder = "SC-B6 (IgG) (antibody, V domains shown, also called anti AQP3 antibody SC-B6) VH: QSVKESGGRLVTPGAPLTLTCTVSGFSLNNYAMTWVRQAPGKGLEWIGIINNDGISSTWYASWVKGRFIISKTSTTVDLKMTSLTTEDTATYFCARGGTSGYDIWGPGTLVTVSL VL: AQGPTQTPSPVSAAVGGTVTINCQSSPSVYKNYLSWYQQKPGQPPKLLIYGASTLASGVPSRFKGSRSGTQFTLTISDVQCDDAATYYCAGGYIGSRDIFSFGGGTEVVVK"
assay_readout = "binding signal (plate reader)"
result = 0.135

